B1: C1orf55 (parent)
chain: FTSPDYQQQCHEMAERLEDSVLKG

variants of: B1; assay: protein stability index of a GFP-peptide fusion (GPS, HEK-293T) (PSI 1-6); higher = more stable; conditions: c terminus: a fixed tail appended;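 note: lentivirally expressed fusions sorted by FACS into six bins by GFP to DsRed ratio, PSI derived from sequencing read proportions per bin multiplied by bin number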
measurement_type: protein stability index

# mutant_id, measurement_type, result_value
data = [
    ("E15S", "protein stability index", 2.04),
    ("Q8K", "protein stability index", 2),
    ("D19E", "protein stability index", 2.04),
    ("D5H", "protein stability index", 2.03),
    ("Q8A", "protein stability index", 1.96),
    ("G24A", "protein stability index", 1.98),
    ("Q7T", "protein stability index", 2.02),
]
